All values here come from patent US20230000950A1.

Answer each item with its documented In vitro activity (relative activity to SEQ ID NO: 1, %), cAMP assay, from EC50.
molecular target: human glucagon receptor (human, UniProt P47871 26-477); assay: cell-based or functional assay
Sequence (P47871 26-477): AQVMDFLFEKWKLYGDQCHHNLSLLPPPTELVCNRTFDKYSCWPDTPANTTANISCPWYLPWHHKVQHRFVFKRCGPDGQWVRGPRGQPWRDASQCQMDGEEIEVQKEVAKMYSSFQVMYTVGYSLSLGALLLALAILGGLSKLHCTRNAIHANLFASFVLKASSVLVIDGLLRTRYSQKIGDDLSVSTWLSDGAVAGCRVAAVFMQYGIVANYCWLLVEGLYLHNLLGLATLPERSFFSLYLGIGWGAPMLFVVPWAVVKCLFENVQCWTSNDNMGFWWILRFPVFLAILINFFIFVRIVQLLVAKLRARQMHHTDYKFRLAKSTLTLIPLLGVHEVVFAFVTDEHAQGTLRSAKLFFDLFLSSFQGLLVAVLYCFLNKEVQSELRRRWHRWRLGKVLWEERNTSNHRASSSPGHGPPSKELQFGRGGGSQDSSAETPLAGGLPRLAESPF
Positions of bridges follow the written chain, without caps; N, C: chain ends. Non-standard residues stand in square brackets, D forms with d. No end group written: not given here. Aib = CC(C)(N)C(=O)O
Numbers only, in %.

Please review the following examples before continuing.
- binder: "Y[Aib]QGTFCSDYSKYLDSRRAQDFVQWLMNT [glucagon derivative of SEQ ID NO: 42]"
  reading_unit: "%"
  obs_value: 37.9
- binder: "Y[Aib]QGTFVSDYSKYLDERRAKDFVQWLMNTC (lactam 16-20) [glucagon derivative of SEQ ID NO: 40]"
  reading_unit: "%"
  obs_value: 40.8
- binder: "Y[Aib]QGTFTSDYSKYLDCKRAKEFVQWLMNT [glucagon derivative of SEQ ID NO: 14]"
  reading_unit: "%"
  obs_value: 18.1
- binder: "Y[Aib]QGTFCSDYSKYLDERRAKDFVQWLMNT (lactam 16-20) [glucagon derivative of SEQ ID NO: 41]"
  reading_unit: "%"
  obs_value: 45.2
- binder: "YXQGTFTSDYSKYLDSRRAQDFVQWLMNTC (X at position 2 = aminoisobutyric acid (Aib)) [glucagon derivative of SEQ ID NO: 44]"
  reading_unit: "%"
  obs_value: 75.4

// input: 7 binders below; output: In vitro activity (relative activity to SEQ ID NO: 1, %), cAMP assay, from EC50 for each
1. Y[Aib]QGTFTSDYSKYLDECRAKEFVQWLMNT (lactam 16-20) [glucagon derivative of SEQ ID NO: 20]
2. YXQGTFTSDYSKYLDSRRAQDFVQWLMNT (X at position 2 = aminoisobutyric acid (Aib)) [glucagon derivative of SEQ ID NO: 33]
3. HSQGTFTSDYSKYLDCERAQDFVQWLMNT [glucagon derivative of SEQ ID NO: 3]
4. Y[Aib]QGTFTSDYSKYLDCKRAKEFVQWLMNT (lactam 17-21) [glucagon derivative of SEQ ID NO: 31]
5. Y[Aib]QGTFTSDYSCYLDEKRAKEFVQWLMNT [glucagon derivative of SEQ ID NO: 45]
6. Y[Aib]QGTFTSDYSKYLDERRAKEFVQWLMNTC (lactam 16-20) [glucagon derivative of SEQ ID NO: 37]
7. Y[Aib]QGTFTSDYSKYLDCVRAQDFVQWLMRT [glucagon derivative of SEQ ID NO: 17]

Result:
1: 300; 2: 108; 3: 6.1; 4: 6.3; 5: 5.2; 6: 226; 7: 23.2

// input: 2 binders below; output: In vitro activity (relative activity to SEQ ID NO: 1, %), cAMP assay, from EC50 for each
1. Y[Aib]QGTFTSDYSKCLDEKRAKEFVQWLMNT (lactam 16-20) [glucagon derivative of SEQ ID NO: 24]
2. Y[Aib]QGTFTSDYSKCLDERRAKDFVQWLMNT (lactam 16-20) [glucagon derivative of SEQ ID NO: 29]

Result:
[58, 61.3]
